From: patent US4925870A

# Test system: rat hepatic microsomes
# Protocol description: NADPH consumption by hepatic microsomes
# Assay type: biochemical
# Experimental conditions: NADPH 500 μM + Fe^2+ 20 μM + ADP 500 μM
Listing of recorded IC50 by entry.

Compound	Target	IC50
O=c1c(O)c(-c2ccc(O)c(O)c2)oc2cc(O)cc(O)c12 [Quercetin, reference compound]	rat hepatic microsomes	17 µM
Oc1cc(O)c2c(c1)O[C@@]1(c3ccc(O)c(O)c3)Oc3cc(O)c4c(c3[C@@H]2[C@H]1O)O[C@H](c1ccc(O)c(O)c1)[C@H](O)C4	rat hepatic microsomes	14 µM
